Biological target: Human MIF (MIF tautomerase activity) (Homo sapiens)
Construct: made in house
Experiment: HPP tautomerase assay
Assay type: biochemical
Settings: Table 11; read-out: HPP IC50
quantity: pIC50
Just the number, please; pIC50 means minus log10 of the concentration in mol/L.

Please give the measured pIC50 for this compound: Fc1ccc2nn(-c3ccc(Cl)cc3)cc2c1 [MIF-129]
3.31

----------
Target: MIF-CD74 Binding (biotin-labeled recombinant human MIF, recombinant human MIF receptor CD74 ectodomain) (Homo sapiens, UniProt P14174)
Assay: MIF-CD74 binding (capture) assay
Conditions: Table 19
% Bound values by entry
Supply the numeric figure in %, leaving out any unit text.

// solved cases for % Bound follow
>>> meas_value("Cc1ccccc1Cn1cc(-c2ccc(O)cc2)nn1 [MIF-032]")
100
>>> meas_value("COc1ccc(Cn2cc(-c3ccc(O)cc3)nn2)cc1 [MIF-004]")
94
>>> meas_value("Oc1ccc(-c2cn(Cc3ccccc3)nn2)cc1 [MIF-002]")
96
>>> meas_value("Cc1cccc(Cn2cc(-c3ccc(O)cc3)nn2)c1 [MIF-031]")
100

Attention now shifts to the item below.
Please give the measured % Bound for this compound: COc1cccc(Cn2cc(-c3ccc(O)cc3)nn2)c1 [MIF-005]
67

----------
Target: MIF-CD74 Binding (biotin-labeled recombinant human MIF, recombinant human MIF receptor CD74 ectodomain) (Homo sapiens, UniProt P14174)
Sequence (P14174 2-115 limits assumed): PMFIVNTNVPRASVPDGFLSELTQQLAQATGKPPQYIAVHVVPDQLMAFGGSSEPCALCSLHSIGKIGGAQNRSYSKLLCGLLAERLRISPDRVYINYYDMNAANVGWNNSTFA
Assay: MIF-CD74 binding (capture) assay
Settings: Table 18; number before @
Please mark Fulfilled if the recorded C74 % MaxInhib is equal to or greater than 10%, and Not fulfilled if it falls below.

Examples with answers:
>>> discrete_label("Oc1ccc(Cc2cn(-c3ccc(O)cc3)nn2)cc1")
"Fulfilled"
>>> discrete_label("COc1ccc(Cc2cn(-c3ccc(O)cc3)nn2)cc1OC")
"Fulfilled"
>>> discrete_label("Cc1cccc(Cc2cn(-c3ccc(O)cc3)nn2)c1")
"Fulfilled"

Is C74 % MaxInhib at least 10%? Consider COc1cccc(C(=O)c2cn(-c3ccc(O)cc3)nn2)c1
Fulfilled

Is C74 % MaxInhib at least 10%? Consider COc1ccc(Cc2cn(-c3ccc(O)cc3)nn2)cc1
Fulfilled

Is C74 % MaxInhib at least 10%? Consider Oc1ccc(-n2cc(Cc3ccccc3O)nn2)cc1
Not fulfilled

Is C74 % MaxInhib at least 10%? Consider COc1cccc(Cc2cn(-c3ccc(O)cc3)nn2)c1
Not fulfilled

Is C74 % MaxInhib at least 10%? Consider COc1ccccc1Cc1cn(-c2ccc(O)cc2)nn1
Fulfilled

Is C74 % MaxInhib at least 10%? Consider Oc1ccc(-n2cc(Cc3ccccc3)nn2)cc1F
Fulfilled

----------
Target: MIF-CD74 Binding (biotin-labeled recombinant human MIF, recombinant human MIF receptor CD74 ectodomain) (Homo sapiens)
Sequence (P14174 2-115 limits assumed): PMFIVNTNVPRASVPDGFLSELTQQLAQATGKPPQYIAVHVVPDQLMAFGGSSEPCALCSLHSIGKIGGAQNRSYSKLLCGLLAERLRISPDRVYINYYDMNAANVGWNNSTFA
Experiment: MIF-CD74 binding (capture) assay
Conditions: Table 7, data cell c7; number before @
quantity: CD74 % MaxInhib (%)
Supply the numeric figure in %, leaving out any unit text.

// solved cases for CD74 % MaxInhib follow
>>> meas_value("Cc1ccc2nc(-c3ccc(Cl)cc3)oc2c1 [MIF-123]")
26
>>> meas_value("Cc1ccc2oc(-c3ccc(Cl)cc3)nc2c1 [MIF-124]")
11
>>> meas_value("Clc1ccc(-c2nc3cc(Cl)ccc3o2)cc1 [MIF-122]")
13
>>> meas_value("Clc1ccc2nc(-c3ccccc3)oc2c1 [MIF-120]")
11

Attention now shifts to the item below.
Please give the measured CD74 % MaxInhib for this molecule: Clc1ccc(-c2nc3ccc(Cl)cc3o2)cc1 [MIF-121]
27

----------
Biological target: Human MIF (MIF tautomerase activity) (Homo sapiens, UniProt P14174)
Construct: made in house
Sequence (P14174 2-115 limits assumed): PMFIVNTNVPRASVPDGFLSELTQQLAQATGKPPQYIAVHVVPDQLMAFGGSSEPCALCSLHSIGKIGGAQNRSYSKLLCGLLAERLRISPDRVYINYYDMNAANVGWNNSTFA
Assay: HPP tautomerase assay
Type: biochemical
Settings: Table 13, data cell c5; number before @
quantity: HPP Max Inhib

// solved cases for HPP Max Inhib follow
>>> meas_value("O=C(c1cc2ccccc2o1)c1cc2cc(F)ccc2o1 [MIF-073]")
"33%"
>>> meas_value("Cc1ccc2cc(C(=O)c3cc4ccccc4o3)oc2c1 [MIF-077]")
"30%"
>>> meas_value("Cc1ccc2oc(C(=O)c3cc4ccccc4o3)cc2c1 [MIF-078]")
"47%"

Please give the measured HPP Max Inhib for this molecule: O=C(c1cc2ccccc2o1)c1cc2cc(O)ccc2o1 [MIF-072]
30%

----------
Molecular target: MIF-CD74 Binding (biotin-labeled recombinant human MIF, recombinant human MIF receptor CD74 ectodomain) (Homo sapiens, UniProt P14174)
Assay: MIF-CD74 binding (capture) assay
Conditions: Table 5; read-out: CD74 IC50
quantity: IC50

// solved cases for IC50 follow
>>> meas_value("O=C(c1cc2ccccc2o1)N1CCc2ccccc21")
"4 µM"
>>> meas_value("c1ccc(COc2ccc3cc(-c4cc[nH]c4)[nH]c3c2)cc1")
"5000 µM"
>>> meas_value("c1ccc(Cn2c(-c3cscn3)nc3ccccc32)cc1")
"> 1000 µM"

Please give the measured IC50 for this compound: O=C(O)COc1ccc2occ(C(=O)c3ccccc3)c2c1
1500 µM

Please give the measured IC50 for this compound: CC(=O)Oc1ccc2nc(-c3cc4ccccc4o3)oc(=O)c2c1
2.5 µM

----------
Molecular target: MIF-CD74 Binding (biotin-labeled recombinant human MIF, recombinant human MIF receptor CD74 ectodomain) (Homo sapiens)
Test: MIF-CD74 binding (capture) assay
Details: Table 19, data cell c5; read-out: CD74 IC50
quantity: IC50 (µM)
Supply the numeric figure in µM, leaving out any unit text.

>>> meas_value("Oc1ccc(-c2cn(Cc3ccccc3)nn2)cc1")
6000

Please give the measured IC50 for this compound: COC(=O)c1cccc(Cn2cc(-c3ccc(O)cc3)nn2)c1
1.2

Please give the measured IC50 for this compound: COc1cccc(Cn2cc(-c3ccc(O)cc3)nn2)c1
100

Please give the measured IC50 for this compound: COc1cccc(Cn2cc(-c3ccc(O)cc3)nn2)c1OC
1.2

----------
Biological target: MIF-CD74 Binding (biotin-labeled recombinant human MIF, recombinant human MIF receptor CD74 ectodomain) (Homo sapiens)
Sequence (P14174 2-115 limits assumed): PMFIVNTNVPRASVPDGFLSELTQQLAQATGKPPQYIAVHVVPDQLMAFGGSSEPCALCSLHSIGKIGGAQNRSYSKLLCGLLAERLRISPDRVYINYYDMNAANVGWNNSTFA
Test: MIF-CD74 binding (capture) assay
Settings: Table 16; read-out: CD74 IC50
quantity: pIC50
Just the number, please; pIC50 means minus log10 of the concentration in mol/L.

Please give the measured pIC50 for this compound: O=C(O)COc1ccc2occ(C(=O)c3ccccc3)c2c1 [Compound 23]
2.82

----------
Biological target: MIF-CD74 Binding (biotin-labeled recombinant human MIF, recombinant human MIF receptor CD74 ectodomain) (Homo sapiens)
Experiment: MIF-CD74 binding (capture) assay
Conditions: Table 4
quantity: concentration of CD74 % MaxInhib (number after @) (µM)
Supply the numeric figure in µM, leaving out any unit text.

// solved cases for concentration of CD74 % MaxInhib (number after @) follow
>>> meas_value("O=c1oc2cc(O)ccc2n1Cc1ccccc1")
0.039
>>> meas_value("COc1ccccc1Cn1c(=O)oc2ccc(F)cc21")
0.039
>>> meas_value("Cc1ccc2oc(=O)n(Cc3cccc(O)c3)c2c1")
0.0078

Please give the measured concentration of CD74 % MaxInhib (number after @) for this compound: COc1cccc(Cn2c(=O)oc3ccc(C)cc32)c1
1.87

Please give the measured concentration of CD74 % MaxInhib (number after @) for this compound: COc1cccc(Cn2c(=O)oc3ccc(OC)cc32)c1
1.87

Please give the measured concentration of CD74 % MaxInhib (number after @) for this compound: Cc1ccc2c(c1)oc(=O)n2Cc1ccccc1
1.87

Please give the measured concentration of CD74 % MaxInhib (number after @) for this compound: COc1cccc(Cn2c(=O)oc3ccc(CO)cc32)c1
0.039

----------
Target: MIF-CD74 Binding (biotin-labeled recombinant human MIF, recombinant human MIF receptor CD74 ectodomain) (Homo sapiens, UniProt P14174)
Assay: MIF-CD74 binding (capture) assay
Conditions: Table 5; number before @
CD74 % MaxInhib values by entry
Supply the numeric figure in %, leaving out any unit text.

// solved cases for CD74 % MaxInhib follow
>>> meas_value("c1ccc(Cn2c(Cc3ccccn3)nc3ccccc32)cc1")
40
>>> meas_value("COCCc1nc2ccccc2n1Cc1ccccc1")
25
>>> meas_value("CN(C)C(=O)c1nc2ccccc2n1Cc1ccccc1")
27
>>> meas_value("CNC(=O)c1nc2ccccc2n1Cc1ccccc1")
16

Attention now shifts to the item below.
Please give the measured CD74 % MaxInhib for this molecule: NC(=O)c1nc2ccccc2n1Cc1ccccc1
25
